# Tested on: zymostenol accumulation (EBP) in EpiSC-derived OPCs
# assay name: GC/MS-based sterol profiling, zymostenol accumulation in EpiSC-derived OPCs
# Assay type: cell-based, mouse
# measurement conditions: Mus musculus, 24 h, EpiSC-derived OPCs, 24 hr, 8 doses from 0.15 nM to 333 nM; read-out: Mouse Zymostenol GCMS EC50
pEC50: −log10 of the molar value.
# label = Y if pEC50 >= 8 else N

-- ask Reported pEC50 at or above 8? COCCN1CCN([C@H]2CC[C@H](c3cc(-c4ccc(C(F)(F)F)nc4)nn3C(C)C)C2)CC1 (single isomer, unassigned)
-- reply N

-- ask Same thing, different molecule: FC(F)(F)c1cccc(-c2nc([C@@H]3CC[C@H](N4CCCOCC4)C3)n(C3CC3)n2)n1 (single isomer, unassigned)
-- reply N

-- ask Same thing, different molecule: CC(C)n1nc(-c2cccc(F)c2)cc1[C@H]1[C@@H]2C[C@H](N3CCCOCC3)C[C@@H]21
-- reply Y

-- ask Same thing, different molecule: CC(C)n1nc(-c2cnc(C(F)(F)F)nc2)cc1[C@H]1CC[C@@H](N2CCO[C@@H](CF)C2)C1 (single isomer, unassigned)
-- reply N

-- ask Same thing, different molecule: CC(C)n1nc(-c2cncc(C(F)(F)F)c2)nc1[C@H]1[C@@H]2C[C@H](N3CCCOCC3)C[C@@H]21
-- reply N

-- ask Same thing, different molecule: CC(C)n1nc(-c2cncc(C(F)(F)F)n2)cc1[C@H]1[C@@H]2C[C@H](N3CCOCC3)C[C@@H]21
-- reply N

-- ask Same thing, different molecule: CC(C)n1nc(-c2ccc(C(F)(F)F)c(F)c2)nc1[C@@H]1CC[C@H](N2CCOCC2)C1 (single isomer, unassigned)
-- reply Y

-- ask Same thing, different molecule: CC(C)n1nc(-c2cncc(C(F)(F)F)c2)cc1[C@H]1[C@@H]2C[C@@H](N3CCOC(C)(C)C3)C[C@@H]21
-- reply Y

-- ask Same thing, different molecule: CC(C)n1nc(-c2cc(C(F)(F)F)ccn2)nc1[C@@H]1CC[C@@H](N2CCOCC2)C1 (single isomer, unassigned)
-- reply N

-- ask Same thing, different molecule: CC(C)n1nc(-c2cnc(C(F)(F)F)nc2)nc1[C@H]1CC[C@@H](N2CCO[C@H](C)C2)C1
-- reply Y

In the following, a different molecule is considered.
-- ask Reported pEC50 at or above 8? CC(C)n1nc(-c2cccc(OC(F)F)c2)cc1[C@H]1[C@@H]2C[C@H](N3CCCOCC3)C[C@@H]21 (single isomer, unassigned)
-- reply Y

* * *

Test system UniProtKB Q15125, Ki listed for each of the compounds.
Sequence (Q15125 whole entry): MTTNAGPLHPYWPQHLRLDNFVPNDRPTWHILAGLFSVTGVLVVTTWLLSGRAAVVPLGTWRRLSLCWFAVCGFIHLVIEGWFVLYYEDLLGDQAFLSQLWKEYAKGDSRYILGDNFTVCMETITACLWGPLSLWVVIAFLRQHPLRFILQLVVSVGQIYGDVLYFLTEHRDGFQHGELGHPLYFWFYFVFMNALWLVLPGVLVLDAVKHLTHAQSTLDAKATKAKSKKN
Answer with a number only, understood to be in nM.

Solved entries:
-- ask // lookup Ki for CC(C)n1nc(-c2cccc(OC(F)F)c2)nc1[C@H]1[C@@H]2C[C@@H](N3CCOC[C@H]3C)C[C@@H]21 [Compound 77]
-- reply 129

-- ask Same thing, different compound: CC(C)n1nc(-c2cncc(Cl)c2)nc1[C@H]1CC[C@H](N2CCOC[C@@H]2C)C1 [Compound 125]
-- reply 245

-- ask Same thing, different compound: CC(C)n1nc(-c2cccc(C(F)(F)F)c2)nc1[C@H]1CC[C@H](N2CCOCC2)C1 (single isomer, unassigned) [24*]
-- reply 8.9

-- ask Same thing, different compound: CC(C)n1nc(-c2ccnc(C(F)(F)F)n2)cc1[C@H]1[C@@H]2C[C@H](N3CCOC[C@H]3C)C[C@@H]21 [Compound 103]
-- reply 36.1

-- ask Same thing, different compound: CC(C)n1nc(-c2cccc(C(F)(F)F)c2)nc1[C@H]1[C@@H]2C[C@H](N3CCOCC3)C[C@@H]21 [19*]
-- reply 9.93

-- ask Same thing, different compound: CC(C)n1nc(-c2cnc(C(F)(F)F)nc2)nc1[C@H]1CC[C@@H](N2CCOCC2)C1 [Compound 95]
-- reply 33.3

Could you now consider this next compound?
-- ask // lookup Ki for CC(C)n1nc(-c2cncc(C(F)(F)F)c2)cc1[C@@H]1CC[C@@H](N2CCCOCC2)C1 (single isomer, unassigned) [65*]
-- reply 28.2
